- tgt: T1, biotinylated hIL-33 protein (R&D systems, Cat #3625-IL/CF) (human, UniProt O95760 112-270, biotinylated (sites not given))
- T1 construct: Same commercial protein as m21, biotin-labelled; also called biotin-hIL-33
- T1 sequence (looked up): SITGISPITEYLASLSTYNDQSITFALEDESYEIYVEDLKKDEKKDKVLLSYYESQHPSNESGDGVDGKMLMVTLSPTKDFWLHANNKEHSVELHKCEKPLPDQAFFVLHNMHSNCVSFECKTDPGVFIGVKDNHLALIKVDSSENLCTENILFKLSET
- protocol: competition ELISA, 30 pM biotin-hIL-33 on coated hST2-hFc
Below is a list of entries, each paired with its recorded IC50 value.

# binder, value.units, IC50
measured = [
    ("H4H9663P (antibody, human IgG4, V domains shown, Human IgG4 Fc (H4H)) VH: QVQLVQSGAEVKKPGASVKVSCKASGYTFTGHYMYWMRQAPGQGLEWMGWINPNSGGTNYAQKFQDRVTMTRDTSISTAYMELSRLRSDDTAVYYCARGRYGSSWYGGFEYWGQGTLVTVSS VL: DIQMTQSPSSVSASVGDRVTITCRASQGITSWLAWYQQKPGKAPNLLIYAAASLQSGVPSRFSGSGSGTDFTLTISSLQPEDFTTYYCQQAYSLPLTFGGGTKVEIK", "nM", 0.5),
    ("H4H9675P (antibody, human IgG4, V domains shown, Human IgG4 Fc (H4H)) VH: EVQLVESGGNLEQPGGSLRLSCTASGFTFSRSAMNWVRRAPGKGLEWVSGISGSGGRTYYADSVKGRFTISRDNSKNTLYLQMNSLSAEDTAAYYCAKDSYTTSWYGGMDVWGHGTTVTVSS VL: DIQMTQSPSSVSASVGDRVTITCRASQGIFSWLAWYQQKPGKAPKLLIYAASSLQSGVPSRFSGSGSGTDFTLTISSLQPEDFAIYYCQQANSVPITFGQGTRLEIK", "nM", 0.44),
]
